- assay-target: T1, HLA-A0201 on T2 cells (human)
- T1 construct: MHC class I on TAP-deficient T2 cells; also called HLA-A2; HLA-A0201 molecule
- procedure-details: T2 cell peptide binding assay, fluorescence index = (MFI sample - MFI background)/MFI background, peptide 100 uM
Response field label takes rule met when FI is strictly below 2 and rule not met in all other cases.

Study these solved cases before continuing.
>  <binder>
FLVDGFWSL (Synthetic peptide) [variant peptide FLVDGFWSL]

>  <qualitative-label>
rule met

$$$$
>  <binder>
FMVDGSWSI (Synthetic peptide, purity >90%) [wild-type peptide FMVDGSWSI]

>  <qualitative-label>
rule not met

$$$$
>  <binder>
FMVDGFWSL (Synthetic peptide) [variant peptide FMVDGFWSL]

>  <qualitative-label>
rule not met

$$$$
>  <binder>
FMVDGFWSV (Synthetic peptide) [variant peptide FMVDGFWSV]

>  <qualitative-label>
rule not met

$$$$
>  <binder>
FLVDGFWSI (Synthetic peptide) [variant peptide FLVDGFWSI]

>  <qualitative-label>
rule not met

$$$$

Now for another entry.
Regarding FLVDGFWSV (Synthetic peptide) [variant peptide FLVDGFWSV] , kindly confirm whether its FI is beneath 2. rule met
